- Tested on: AurB or AurC
- MEASUREMENT PROTOCOL: Probe-based (AX9989) kinase profiling in Jurkat lysate: AurB or AurC
- Type: binding
- CONDITION NOTES: screening concentration 1 μM
REPORTED PROPERTY: AurB or AurC Inhibition % at indicated screening concentration

| COMPOUND | RESULT |
| --- | --- |
| CCOc1cc(C(=O)N2CCC(N3CCCC3)CC2)ccc1Nc1cc2c(cn1)N(C)C(=O)c1scnc1N2C [Compound T6] | E (E is ≦35%) |
| CC(C)Oc1cc(C(=O)N2CC[C@@H](NCCF)C2)ccc1Nc1cc2c(cn1)N(C)C(=O)c1ccccc1N2C [Compound T50] | E (E is ≦35%) |
| [2H]C([2H])([2H])N1C(=O)c2ccccc2N(C([2H])([2H])[2H])c2cc(Nc3ccc(C(=O)N4CCN(C(C)=O)CC4)cc3OCC)ncc21 [Compound T77] | E (E is ≦35%) |
| CCOc1cc(C(=O)N2CCC(N3CC[C@@H](O)C3)CC2)ccc1Nc1cc2c(cn1)N(C)C(=O)c1ccccc1N2C [Compound T10] | E (E is ≦35%) |
| CCOc1cc(C(=O)N2CCN(C(C)=O)CC2)ccc1Nc1cc2c(cn1)N(C)C(=O)c1ccccc1N2C1CC1 [Compound T67] | E (E is ≦35%) |
| CCOc1cc(C(=O)N2CCOCC2)ccc1Nc1cc2c(cn1)N(C)C(=O)c1ccccc1O2 [Compound T81] | E (E is ≦35%) |

Given item CCOc1cc(C(=O)N2CCN(CCN3CCOCC3)CC2)ccc1Nc1cc2c(cn1)N(C)C(=O)c1ccccc1N2C [Compound T15] , the value recorded as its AurB or AurC Inhibition % at indicated screening concentration is E (E is ≦35%)

AurB or AurC Inhibition % at indicated screening concentration measured on CCOc1cc(C(=O)N2CC[C@H](C#N)C2)ccc1Nc1cc2c(cn1)N(C)C(=O)c1ccccc1N2C [Compound T22] = E (E is ≦35%)

Lookup result for CCOc1cc(C(=O)N(C)[C@H]2CC[C@H](O)CC2)ccc1Nc1cc2c(cn1)N(C)C(=O)c1ccccc1N2C [Compound T64] ; measured AurB or AurC Inhibition % at indicated screening concentration: E (E is ≦35%)

Briefly, AurB or AurC Inhibition % at indicated screening concentration measured for CCOc1cc(C(=O)N2C[C@H]3CCN[C@H]3C2)ccc1Nc1cc2c(cn1)N(C)C(=O)c1ccccc1N2C [Compound T5] : E (E is ≦35%)

Consider CN1CCN([C@@H]2CCN(C(=O)c3ccc(Nc4cc5c(cn4)N(C)C(=O)c4ccccc4N5C)c(OC(F)F)c3)C2)CC1 [Compound T75] . Its measured AurB or AurC Inhibition % at indicated screening concentration is E (E is ≦35%)

Please fill in: AurB or AurC Inhibition % at indicated screening concentration reported for CCOc1cc(C(=O)N2CC[C@@H](N3CCN(C)CC3)C2)ccc1Nc1cc2c(cn1)N(C)C(=O)c1ccccc1N2C [Compound T20] = E (E is ≦35%)

get_value(item= CCOc1cc(C(=O)N2CC[C@@H](N3CCN(C)CC3)C2)ccc1Nc1cc2c(cn1)N(C)C(=O)c1scnc1N2C [Compound T74] , readout=AurB or AurC Inhibition % at indicated screening concentration) returns E (E is ≦35%)

Data point: CCOc1cc(C(=O)N2CCC(NC3CCN(C)CC3)C2)ccc1Nc1cc2c(cn1)N(C)C(=O)c1ccccc1N2C (centres unmarked) [Compound T42] ; AurB or AurC Inhibition % at indicated screening concentration = E (E is ≦35%)

The origin of these recorded values is patent US20170008888A1.
